# Tested Target: JAK2 (Homo sapiens, UniProt O60674)
# Construct: purchased Carna Biosciences
# Sequence (O60674 whole entry): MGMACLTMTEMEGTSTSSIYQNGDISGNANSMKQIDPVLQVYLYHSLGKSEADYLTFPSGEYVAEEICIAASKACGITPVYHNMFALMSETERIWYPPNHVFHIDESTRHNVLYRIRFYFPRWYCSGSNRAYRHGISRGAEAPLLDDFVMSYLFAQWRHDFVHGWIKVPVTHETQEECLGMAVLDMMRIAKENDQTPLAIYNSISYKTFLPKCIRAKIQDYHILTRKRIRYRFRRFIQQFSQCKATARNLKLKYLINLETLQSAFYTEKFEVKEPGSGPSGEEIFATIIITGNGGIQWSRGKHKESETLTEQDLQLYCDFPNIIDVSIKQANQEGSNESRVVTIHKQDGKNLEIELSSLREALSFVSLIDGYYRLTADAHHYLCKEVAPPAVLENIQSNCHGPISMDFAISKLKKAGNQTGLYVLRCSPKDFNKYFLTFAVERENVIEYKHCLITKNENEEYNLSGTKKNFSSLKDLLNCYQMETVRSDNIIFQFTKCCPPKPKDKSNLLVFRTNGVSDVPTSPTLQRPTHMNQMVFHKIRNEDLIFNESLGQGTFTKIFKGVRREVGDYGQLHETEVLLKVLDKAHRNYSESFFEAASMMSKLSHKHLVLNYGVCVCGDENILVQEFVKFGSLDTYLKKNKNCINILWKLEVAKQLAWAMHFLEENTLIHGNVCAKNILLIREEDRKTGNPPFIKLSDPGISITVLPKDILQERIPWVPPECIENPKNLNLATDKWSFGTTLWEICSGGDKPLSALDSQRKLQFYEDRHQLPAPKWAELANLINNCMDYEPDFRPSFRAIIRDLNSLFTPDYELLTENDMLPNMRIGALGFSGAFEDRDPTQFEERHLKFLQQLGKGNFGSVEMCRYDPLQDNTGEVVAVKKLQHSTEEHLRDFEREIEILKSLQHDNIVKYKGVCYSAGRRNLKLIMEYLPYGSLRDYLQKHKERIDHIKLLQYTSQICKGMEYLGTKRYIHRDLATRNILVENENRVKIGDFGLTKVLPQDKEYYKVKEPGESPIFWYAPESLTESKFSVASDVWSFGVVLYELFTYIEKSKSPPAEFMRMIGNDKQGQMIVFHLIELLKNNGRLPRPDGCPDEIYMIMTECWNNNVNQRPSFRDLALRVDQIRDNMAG
# Assay Info: JAK2 microfluidic kinase assay (Caliper EZ Reader II, FAM labeled peptide substrate)
# Type: biochemical
# Settings: IC50 JAK2 ([…]) (1 mM ATP), 1 mM ATP
Readout Type: IC50 (nM)
Value expressed in nM; do not type the unit.

Quick one: IC50 of CCCn1cc(Nc2ncc(Cl)c(-c3ccc(C(=O)N[C@@H](C)C#N)cc3)n2)cn1 ?
3.14

Quick one: IC50 of Cc1cnc(Nc2cnn(C3CC3)c2)nc1-c1ccc(C(=O)N(C)CC#N)cc1 ?
461

Quick one: IC50 of C[C@@H](C#N)NC(=O)c1ccc(-c2nc(Nc3cnn(CC#N)c3)ncc2Cl)cc1 ?
25.2

Quick one: IC50 of Cc1cnc(Nc2cnn(C3CCN(C(=O)C4CC4(F)F)CC3)c2)nc1-c1ccc(C(=O)NCC#N)cc1 (centres unmarked) ?
0.47

Quick one: IC50 of Cc1cnc(Nc2cnn(C3CC3)c2)nc1-c1ccc(C(=O)N[C@@H](C)C#N)nc1 ?
89.3

Quick one: IC50 of N#CC1(CNC(=O)c2ccc(-c3nc(Nc4cnn(C5CC5)c4)ncc3Cl)cc2)CC1 ?
30.6

Quick one: IC50 of C[C@@H](C#N)NC(=O)c1ccc(-c2nc(Nc3cn[nH]c3)ncc2Cl)cc1 ?
18.3

---

# Tested Target: JAK1 (Homo sapiens)
# Construct: purchased Carna Biosciences
# Sequence (P23458 whole entry): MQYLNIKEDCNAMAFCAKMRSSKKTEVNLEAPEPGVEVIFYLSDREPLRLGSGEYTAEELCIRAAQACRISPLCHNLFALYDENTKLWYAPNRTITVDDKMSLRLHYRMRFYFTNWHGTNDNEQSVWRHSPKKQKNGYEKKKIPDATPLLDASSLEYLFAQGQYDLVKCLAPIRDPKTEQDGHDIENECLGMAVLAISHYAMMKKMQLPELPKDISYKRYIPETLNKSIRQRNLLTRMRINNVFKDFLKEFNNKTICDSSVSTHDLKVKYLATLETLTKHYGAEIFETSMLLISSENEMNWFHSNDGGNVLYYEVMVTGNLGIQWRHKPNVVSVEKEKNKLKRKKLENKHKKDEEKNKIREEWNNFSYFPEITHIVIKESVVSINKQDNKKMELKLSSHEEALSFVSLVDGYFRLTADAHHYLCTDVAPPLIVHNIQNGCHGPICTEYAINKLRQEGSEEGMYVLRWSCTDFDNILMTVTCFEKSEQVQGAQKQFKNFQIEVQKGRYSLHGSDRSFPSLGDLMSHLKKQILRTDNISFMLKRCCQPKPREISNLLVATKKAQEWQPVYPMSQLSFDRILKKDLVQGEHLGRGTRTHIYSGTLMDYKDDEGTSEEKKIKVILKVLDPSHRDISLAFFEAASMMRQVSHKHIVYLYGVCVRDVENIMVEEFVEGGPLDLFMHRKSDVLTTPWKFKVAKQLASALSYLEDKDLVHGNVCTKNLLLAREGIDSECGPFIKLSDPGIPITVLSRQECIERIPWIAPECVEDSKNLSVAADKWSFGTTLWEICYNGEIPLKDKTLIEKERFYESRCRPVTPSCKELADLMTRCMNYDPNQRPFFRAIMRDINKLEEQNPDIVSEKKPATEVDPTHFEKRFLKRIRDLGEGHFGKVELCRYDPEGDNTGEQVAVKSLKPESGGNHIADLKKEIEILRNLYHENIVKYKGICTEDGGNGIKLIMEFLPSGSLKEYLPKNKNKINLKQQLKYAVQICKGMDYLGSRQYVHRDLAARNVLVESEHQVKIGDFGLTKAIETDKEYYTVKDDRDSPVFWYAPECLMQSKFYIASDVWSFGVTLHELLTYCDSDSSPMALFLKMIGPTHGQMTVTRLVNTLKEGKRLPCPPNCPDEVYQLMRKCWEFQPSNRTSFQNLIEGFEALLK
# Assay Info: JAK1 microfluidic kinase assay (Caliper EZ Reader II, FAM labeled peptide substrate)
# Format: biochemical
# Settings: IC50 JAK1 (5 nM) (1 m MATP), JAK1 5 nM, 1 mM ATP
Answer each item with its documented log10 of IC50.
Response schema: value (number) is log10 of IC50 in units of µM.

Quick one: log10 of IC50 of CC[C@@H](C#N)NC(=O)c1ccc(-c2nc(Nc3cnn(C4CCC(O)CC4)c3)ncc2C)cc1 (stereo partly shown) [Example 205] ?
-2.04

Quick one: log10 of IC50 of Cc1cnc(Nc2cnn([C@H]3CC[C@@H](C#N)CC3)c2)nc1-c1ccc(C(=O)NCC#N)cc1 [Example 148] ?
-1.86

Quick one: log10 of IC50 of Cc1cnc(Nc2cnn(CCC#N)c2)nc1-c1ccc(C(=O)N[C@@H](C)C#N)cc1 [Example 216] ?
-2.31

Quick one: log10 of IC50 of CCCn1cc(Nc2ncc(Cl)c(-c3ccc(C(=O)N[C@@H](C)C#N)cc3)n2)cn1 [Example 227] ?
-2.39

Quick one: log10 of IC50 of Cc1cnc(Nc2cnn(C)c2)nc1-c1ccc(C(=O)NCC2(C#N)CC2)cc1 [Example 12] ?
-1.43

Quick one: log10 of IC50 of C[C@@H](C#N)NC(=O)c1ccc(-c2nc(Nc3cnn(C4CCN(C(=O)C(C)(C)C)CC4)c3)ncc2F)cc1 [Example 57] ?
-0.88

Quick one: log10 of IC50 of Cc1cnc(Nc2cnn(CCO)c2)nc1-c1ccc(C(=O)N[C@@H](C)C#N)cc1 [Example 200] ?
-2.54

Quick one: log10 of IC50 of Cc1cnc(Nc2cnn(CCO)c2)nc1-c1ccc(C(=O)N[C@H](C#N)C(C)C)cc1 [Example 191] ?
-2.79

Quick one: log10 of IC50 of CC(C)(C#N)CNC(=O)c1ccc(-c2nc(Nc3cnn(C4CCOCC4)c3)ncc2Cl)cc1 [Example 80] ?
-1.64

Quick one: log10 of IC50 of Cc1cnc(Nc2cnn([C@H]3CC[C@H](C#N)CC3)c2)nc1-c1ccc(C(=O)NCC#N)cc1 [Example 147] ?
-1.97

Quick one: log10 of IC50 of Cc1cnc(Nc2cnn(C3CCN(C(=O)CO)CC3)c2)nc1-c1ccc(C(=O)N[C@@H](C)C#N)cc1 [Example 119] ?
-2.07

Quick one: log10 of IC50 of Cc1cnc(Nc2cnn(C3CCN(C(=O)C4CC4(F)F)CC3)c2)nc1-c1ccc(C(=O)NCC#N)cc1 (stereo not shown) [Example 145] ?
-1.82

Quick one: log10 of IC50 of Cc1cnc(Nc2cnn(C3C[C@H]4CC[C@@H](C3)O4)c2)nc1-c1ccc(C(=O)N[C@@H](C)C#N)cc1 (stereo partly shown) [Example 70] ?
-1.91

Quick one: log10 of IC50 of C[C@H](C#N)NC(=O)c1ccc(-c2nc(Nc3cnn(C)c3)ncc2Cl)cc1 [Example 97] ?
-1.95

Quick one: log10 of IC50 of CC(C)(C)C(=O)N1CCC(n2cc(Nc3ncc(Cl)c(-c4ccc(C(=O)NCC#N)cc4)n3)cn2)CC1 [Example 98] ?
-1.75

Quick one: log10 of IC50 of CC(C)n1cc(Nc2ncc(Cl)c(-c3ccc(C(=O)N[C@@H](C)C#N)cc3)n2)cn1 [Example 228] ?
-2.23

---

Answer each item with its documented IC50.
# Tested Target: JAK1 (Homo sapiens)
# Construct: purchased Carna Biosciences
# Assay Info: JAK1 microfluidic kinase assay (Caliper EZ Reader II, FAM labeled peptide substrate)
# Format: biochemical
# Settings: IC50 JAK1 (5 nM) (1 m MATP), JAK1 5 nM, 1 mM ATP
Value expressed in nM; do not type the unit.

Quick one: IC50 of COC[C@@H](C#N)NC(=O)c1ccc(-c2nc(Nc3cnn(C4CCN(C)CC4)c3)ncc2C)cc1 ?
4.61

Quick one: IC50 of Cc1cnc(Nc2cnn(C3CCN(C(=O)C(C)(C)O)CC3)c2)nc1-c1ccc(C(=O)NC(C)C#N)cc1 (stereo in doubt) ?
10.7

Quick one: IC50 of CC[C@@H](C#N)NC(=O)c1ccc(-c2nc(Nc3cnn(C4CCNCC4)c3)ncc2C)cc1 ?
1.84

Quick one: IC50 of N#CCNC(=O)c1ccc(-c2nc(Nc3cnn(C4CCN(C(=O)CO)CC4)c3)ncc2Cl)cc1 ?
13

---

# Assay Info: Mouse pharmacokinetic study (intravenous and oral)
# Type: in vivo
# Settings: male, plasma, ICR mice, intravenous, 1 mg/kg, solution
Readout Type: clearance (mL/min/kg)
Value expressed in mL/min/kg; do not type the unit.

Quick one: clearance of Cc1cnc(Nc2cnn(C3CC(C)(C)OC(C)(C)C3)c2)nc1-c1ccc(C(=O)NCC#N)cc1 [Example 113] ?
59.5

---

# Tested Target: TYK2 (Homo sapiens, UniProt P29597)
# Construct: purchased Carna Biosciences
# Sequence (P29597 whole entry): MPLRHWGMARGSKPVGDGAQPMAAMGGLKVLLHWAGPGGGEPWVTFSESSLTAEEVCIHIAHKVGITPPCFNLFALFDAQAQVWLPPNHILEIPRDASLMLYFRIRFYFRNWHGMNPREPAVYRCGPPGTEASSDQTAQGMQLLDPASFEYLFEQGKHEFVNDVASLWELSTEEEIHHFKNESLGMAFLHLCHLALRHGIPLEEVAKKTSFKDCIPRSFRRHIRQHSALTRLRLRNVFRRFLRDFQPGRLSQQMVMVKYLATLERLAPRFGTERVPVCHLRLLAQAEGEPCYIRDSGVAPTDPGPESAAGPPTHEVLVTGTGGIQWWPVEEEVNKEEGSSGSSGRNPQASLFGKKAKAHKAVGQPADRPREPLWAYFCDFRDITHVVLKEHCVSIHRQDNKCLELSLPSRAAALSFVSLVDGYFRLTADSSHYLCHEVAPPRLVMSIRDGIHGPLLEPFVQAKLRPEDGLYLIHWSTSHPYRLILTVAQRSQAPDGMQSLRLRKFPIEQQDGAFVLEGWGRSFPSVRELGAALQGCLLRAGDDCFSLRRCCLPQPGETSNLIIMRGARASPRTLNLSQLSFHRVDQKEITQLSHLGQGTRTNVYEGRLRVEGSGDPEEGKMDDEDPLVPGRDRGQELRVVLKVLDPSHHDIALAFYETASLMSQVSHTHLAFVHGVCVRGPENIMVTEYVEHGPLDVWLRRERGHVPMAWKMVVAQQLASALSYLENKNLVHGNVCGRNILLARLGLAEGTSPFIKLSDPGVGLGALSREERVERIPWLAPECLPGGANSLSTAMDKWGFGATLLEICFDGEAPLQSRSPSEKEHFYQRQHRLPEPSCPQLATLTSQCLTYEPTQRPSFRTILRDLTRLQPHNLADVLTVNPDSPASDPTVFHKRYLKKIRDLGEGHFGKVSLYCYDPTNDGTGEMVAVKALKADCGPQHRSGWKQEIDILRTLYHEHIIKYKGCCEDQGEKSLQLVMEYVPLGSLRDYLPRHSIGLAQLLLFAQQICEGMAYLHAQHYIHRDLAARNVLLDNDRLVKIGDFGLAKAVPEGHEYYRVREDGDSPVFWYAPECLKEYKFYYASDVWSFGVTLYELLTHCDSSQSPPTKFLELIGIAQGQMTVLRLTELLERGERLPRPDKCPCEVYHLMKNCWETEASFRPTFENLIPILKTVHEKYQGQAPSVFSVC
# Assay Info: TYK2 microfluidic kinase assay (Caliper EZ Reader II, FAM labeled peptide substrate)
# Format: biochemical
# Settings: IC50 TYK2 ([…]) (1 mM ATP), TYK2 […], 1 mM ATP
Answer each item with its documented IC50.
Value expressed in nM; do not type the unit.

Quick one: IC50 of Cc1cnc(Nc2cnn([C@@H]3C[C@@H](C)N[C@@H](C)C3)c2)nc1-c1ccc(C(=O)N[C@@H](C)C#N)cc1 ?
245

Quick one: IC50 of CC[C@@H](C#N)NC(=O)c1ccc(-c2nc(Nc3cnn(C4CC4)c3)ncc2Cl)cc1 ?
52.8

Quick one: IC50 of Cc1cnc(Nc2cnn(C3CCN(C)CC3)c2)nc1-c1ccc(C(=O)NCC#N)cc1 ?
38.2

Quick one: IC50 of Cc1cnc(Nc2cnn(C3CCNCC3)c2)nc1-c1ccc(C(=O)N[C@H](C#N)C2CC2)cc1 ?
3.15

Quick one: IC50 of Cc1cnc(Nc2cnn(C3CCN(C)CC3)c2)nc1-c1ccc(C(=O)N[C@H](C#N)C2CC2)cc1 ?
1.04

Quick one: IC50 of CC[C@@H](C#N)NC(=O)c1ccc(-c2nc(Nc3cnn(CC#N)c3)ncc2C)cc1 ?
48.2

Quick one: IC50 of Cc1cnc(Nc2cnn(C3CCN(C(=O)CO)CC3)c2)nc1-c1ccc(C(=O)N[C@@H](C)C#N)cc1 ?
5.15

Quick one: IC50 of Cc1cnc(Nc2cnn(C3CCN(C)CC3)c2)nc1-c1ccc(C(=O)N[C@@H](C)C#N)cc1 ?
10.6

Quick one: IC50 of N#CCNC(=O)c1ccc(-c2nc(Nc3cnn(C4CCN(C(=O)CO)CC4)c3)ncc2Cl)cc1 ?
58

Quick one: IC50 of C[C@H](C#N)NC(=O)c1ccc(-c2nc(Nc3cnn(C)c3)ncc2Cl)cc1 ?
218

Quick one: IC50 of CC[C@@H](C#N)NC(=O)c1ccc(-c2nc(Nc3cnn(C4CCNCC4)c3)ncc2Cl)cc1 ?
2.29

Quick one: IC50 of N#CCNC(=O)c1ccc(-c2nc(Nc3cnn(CC#N)c3)ncc2F)cc1 ?
251

Quick one: IC50 of CC[C@@H](C#N)NC(=O)c1ccc(-c2nc(Nc3cnn(C4CCN(C)CC4)c3)ncc2F)cc1 ?
111

Quick one: IC50 of C[C@@H](C#N)NC(=O)c1ccc(-c2nc(Nc3cnn(C4CCNCC4)c3)ncc2Cl)cc1 ?
65

Quick one: IC50 of CC[C@@H](C#N)NC(=O)c1ccc(-c2nc(Nc3cnn(CCC#N)c3)ncc2C)cc1 ?
40.9

Quick one: IC50 of Cc1cnc(Nc2cnn(C3CCNCC3)c2)nc1-c1ccc(C(=O)N[C@@H](C)C#N)cc1 ?
1.04

Quick one: IC50 of Cc1cnc(Nc2cnn(CCC#N)c2)nc1-c1ccc(C(=O)N[C@@H](C)C#N)cc1 ?
74

Quick one: IC50 of COC[C@@H](C#N)NC(=O)c1ccc(-c2nc(Nc3cnn(CCO)c3)ncc2C)cc1 ?
62.3

Quick one: IC50 of CC[C@@H](C#N)NC(=O)c1ccc(-c2nc(Nc3cnn(C4CCCN(C)C4)c3)ncc2C)cc1 (stereo partly shown) ?
58.1

Quick one: IC50 of CC[C@@H](C#N)NC(=O)c1ccc(-c2nc(Nc3cnn(C(C)C(F)(F)F)c3)ncc2C)cc1 (single isomer, unassigned) [Example 226] ?
57.3

Quick one: IC50 of Cc1cnc(Nc2cnn(C(C)C(F)(F)F)c2)nc1-c1ccc(C(=O)N[C@@H](C)C#N)cc1 (stereo partly shown) ?
22.1

Quick one: IC50 of Cc1cnc(Nc2cnn(C3CCNCC3)c2)nc1-c1ccc(C(=O)NCC#N)cc1 ?
76.4

Quick one: IC50 of Cc1cnc(Nc2cnn(C3C[C@@H](C)N[C@H](C)C3)c2)nc1-c1ccc(C(=O)N[C@@H](C)C#N)cc1 (stereo partly shown) ?
24.2

Quick one: IC50 of Cc1cnc(Nc2cnn(C3C[C@@H](C)O[C@@H](C)C3)c2)nc1-c1ccc(C(=O)N[C@@H](C)C#N)cc1 (stereo partly shown) ?
74.4

Quick one: IC50 of C[C@H](C#N)NC(=O)c1ccc(-c2nc(Nc3cnn(C4CCN(C)CC4)c3)ncc2Cl)cc1 ?
272

Quick one: IC50 of Cc1cnc(Nc2cnn(C3CC3)c2)nc1-c1ccc(C(=O)N[C@@H](C)C#N)cc1 ?
31.4

Quick one: IC50 of CC[C@@H](C#N)NC(=O)c1ccc(-c2nc(Nc3cnn(CCO)c3)ncc2Cl)cc1 ?
2.64

Quick one: IC50 of C[C@@H](C#N)NC(=O)c1ccc(-c2nc(Nc3cnn(C4CCN(C)CC4)c3)ncc2F)cc1 ?
218

Quick one: IC50 of CC[C@@H](C#N)NC(=O)c1ccc(-c2nc(Nc3cn[nH]c3)ncc2Cl)cc1 ?
3.51

Quick one: IC50 of Cc1cnc(Nc2cnn(C3CCC(O)CC3)c2)nc1-c1ccc(C(=O)NCC#N)cc1 (stereo not shown) ?
20.4
